Cited source for all entries: PubChem BioAssay (NCI)

# System: ACHN renal
# Run description: NCI-60 one-dose screen, 48 h (100 = growth as untreated, 0 = no growth, -100 = all killed)
# Condition: 10 µM unless noted
About 83,000 compounds went through this panel and 20% of them were active in at least one assay; those are over-represented in the sample as a whole.
Measured parameter: growth (%)
Give bare numbers, in %.

// known answers, use as guide
Cc1ccc(S(=O)(=O)/C(=C\c2ccc(Cl)cc2)C(=O)c2ccccc2)cc1 | 109
O=C(Nc1cccc(-n2cc(-c3ccncc3)c(-c3ccc(Cl)c(O)c3)n2)c1)c1ccccc1 | 53.2
Clc1cc2c(nn1)Nc1ccccc1S2 | 99.1
CN(C)CC(C(=O)c1ccccc1)c1ccccc1 (stereo not given) | -41.5

Shifting focus to the compound that follows.
Query :: Quick check: growth of CN(C[C@H]1Cc2c(cccc2N2CCN(Cc3ccccn3)CC2)CN1)[C@H]1CCCc2cccnc21 ?
Result :: 43.2

###

# Tested on: UO-31 renal
# Run description: NCI-60 one-dose screen, 48 h (100 = growth as untreated, 0 = no growth, -100 = all killed)
# Condition: 10 µM unless noted
About 83,000 compounds went through this panel and 20% of them were active in at least one assay; those are over-represented in the sample as a whole.
Lab note: cut-off is 20%. Strictly less in growth is yes (1). Exactly 20% or more is no (0).

Example cases with answers are listed next.
CCCCCCCCCCCCNC(=O)[C@H]1CSC(c2cc3ccccc3s2)N1 (stereo not given in full) | yes (1)
O=C(Nc1cccc(-n2cc(-c3ccncc3)c(-c3ccc(Cl)c(O)c3)n2)c1)Nc1cc(C(F)(F)F)cc(C(F)(F)F)c1 | yes (1)
O=[N+]([O-])c1cccc(-c2nc3sccn3c2-c2ccnc(NCCCNS(=O)(=O)c3ccc(Cl)cc3)n2)c1 | no (0)
N/C(=N\C(N)=N\c1nc2ccccc2s1)c1cccc(Br)c1 | no (0)
Nc1nnc(-c2ccc3ccccc3c2O)o1 | no (0)

Query :: Consider the compound CC(C)(C)OC(=O)NC(CSCc1ccccc1)C(=O)ON1C(=O)CCC1=O (stereo not given) . Is its growth strictly less than 20%?
Result :: no (0)

Query :: Entry COc1cc(/C=C/C(=O)c2cccc(-n3cc(-c4cc(OC)c(OC)c(OC)c4)[nH]c3=O)c2)cc(OC)c1OC please
Result :: yes (1)

Query :: Please give the result for FC(F)(F)c1ccccc1-c1cn2c(ccc3ccccc32)n1 too.
Result :: no (0)

Query :: Same question for Cn1ccc(=O)c(S(N)(=O)=O)c1 please.
Result :: no (0)

Query :: Same question for N[C@@H]1CCN(C(=O)c2cc3cc(Cl)c(F)c(F)c3[nH]2)C1 please.
Result :: no (0)

###

# Test system: ACHN renal
# Run description: NCI-60 one-dose screen, 48 h
# Condition: 10 µM unless noted
About 83,000 compounds went through this panel and 20% of them were active in at least one assay; those are over-represented in the sample as a whole. The source made the active and inactive calls. The calls were made as follows: active = growth percent below 10; inactive = the rest.
Outcomes you can answer with include only these: active, inactive

C=C[C@@H]1C[C@@H]2Cc3ccccc3N1O2 | inactive
C=C1c2nc3ccccc3n2C=C(c2ccc(Cl)cc2)N1Cc1ccccc1 | inactive
O=C(c1ccccc1)c1c(/C=C/c2ccccc2)c2ccccc2[nH]c1=O | inactive
N#Cc1c(-c2ccccc2)nc(SCC(=O)N2CCN(c3ccccc3)CC2)[nH]c1=O | inactive
O=c1[nH]c(NCc2ccccc2)nc2nc(Nc3ccc(NC(=S)Nc4ccccc4)cc3)nc(-c3ccc(O)cc3O)c12 | inactive

Now turn to the next molecule.
Query :: Hey, what did the test say about COC1=C(OC)C(=O)C(CCCCCCCCCC[P+](c2ccccc2)(c2ccccc2)c2ccccc2)=C(C)C1=O ?
Result :: active
